Biological target: Lyn kinase (Homo sapiens, UniProt P07948)
Construct: purchased Upstate Biotechnology, Lake Placid, N.Y
Sequence (P07948 whole entry): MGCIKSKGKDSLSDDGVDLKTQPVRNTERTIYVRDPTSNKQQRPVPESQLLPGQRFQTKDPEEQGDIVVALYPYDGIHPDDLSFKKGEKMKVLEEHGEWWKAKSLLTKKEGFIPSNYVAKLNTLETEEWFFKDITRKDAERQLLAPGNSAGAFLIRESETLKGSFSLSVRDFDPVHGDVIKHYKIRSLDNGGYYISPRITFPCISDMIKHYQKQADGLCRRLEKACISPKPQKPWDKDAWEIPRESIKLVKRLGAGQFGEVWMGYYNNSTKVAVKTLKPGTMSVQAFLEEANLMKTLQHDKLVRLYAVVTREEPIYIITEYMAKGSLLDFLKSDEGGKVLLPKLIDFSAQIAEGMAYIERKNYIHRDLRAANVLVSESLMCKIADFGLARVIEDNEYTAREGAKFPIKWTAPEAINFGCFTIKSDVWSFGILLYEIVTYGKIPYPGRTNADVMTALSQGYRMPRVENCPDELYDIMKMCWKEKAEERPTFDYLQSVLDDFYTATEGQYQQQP
Assay: Lyn Kinase Assay
Assay type: biochemical
Conditions: test concentration of 2 μM; read-out: Lyn Inhibition (%) Inh
Description: A mixture of a 10× kinase buffer (500 mM MOPS at pH 7.5, 1 mM EGTA, 1 mM Sodium Vanadate, 1% β-mercaptoethanol and 100 mM Magnesium Acetate), ATP (5 μM final from a 10 mM stock), polyGluTyr (0.1 mg/mL final from a 1 mg/mL stock), γ-^33P ATP (10 μCi/μL stock) and water (20 μL/well) was added to each well of a Streptavidin Flashplate. Test compound in 100% DMSO (0.5 μL) was added to the appropriate wells. […]
# maps each entry to its inhibition at 2 µM
READOUT_NAME: inhibition at 2 µM (%)

CHEMICAL_STRING | READOUT_NAME | UNIT_TAG | EXPERIMENTAL_VALUE
COCCNC(=O)c1sc2ncnc(Oc3ccc4[nH]c(C)cc4c3F)c2c1C | inhibition at 2 µM | % | 23
Cc1c(C(=O)NCCN2CCOCC2)sc2ncnc(Nc3ccc(Oc4ccccc4)cc3)c12 | inhibition at 2 µM | % | 23
Cc1cc2c(F)c(Oc3ncnc4sc(C(=O)NCCN5CCOCC5)c(C)c34)ccc2[nH]1 | inhibition at 2 µM | % | 16
Cc1cc2c(F)c(Oc3ncnc4sc(C(=O)NCCN5CCCC5)c(C)c34)ccc2[nH]1 | inhibition at 2 µM | % | -2
Cc1c(C(=O)Nc2ccc(CN3CCOCC3)cc2)sc2ncnc(Nc3ccc(Oc4ccccc4)cc3)c12 | inhibition at 2 µM | % | 9
Cc1cc2c(F)c(Oc3ncnc4sc(C(=O)Nc5ccc(CN6CCOCC6)cc5)c(C)c34)ccc2[nH]1 | inhibition at 2 µM | % | 20
Cc1cc2c(F)c(Oc3ncnc4sc(C(=O)NCCN5CCCCC5)c(C)c34)ccc2[nH]1 | inhibition at 2 µM | % | 8
